- Test system: NCI-H522 lung
- Measurement notes: NCI-60 one-dose screen, 48 h
- Test settings: 10 µM
About 83,000 compounds went through this panel and 20% of them were active in at least one assay; those are over-represented in the sample as a whole. Active and inactive are the calls of the source. How the source made its calls: active means growth percent below 10; inactive means the rest.
Choose the fitting class; nothing outside active, inactive is accepted.

Check out these entries, answers already filled in.
I would be grateful if you could indicate the recorded call for Nc1c(C(=O)Nc2cccc(Br)c2)sc2nc3c(cc12)C(O)CCC3 (stereo not given) .
active

I would be grateful if you could indicate the recorded call for "COc1ccc(-c2nc3ncccn3c2-c2nnc(-c3ccc(F)cc3)o2)cc1" .
inactive

I would be grateful if you could indicate the recorded call for "COc1ccc(Cn2c(C(N)=O)cc3c2-c2nc(N)ncc2CCC3)cc1" .
inactive

I would be grateful if you could indicate the recorded call for "O=C1/C(=C/c2ccc([N+](=O)[O-])o2)Oc2ccccc21" .
active

I would be grateful if you could indicate the recorded call for "ClCCOCCn1cnc2c(Cl)nc(Cl)nc21" .
inactive

Further cases:
I would be grateful if you could indicate the recorded call for "COc1cc(NC(=O)CSc2nc3ccccc3c(=O)n2CCc2ccccc2)cc(OC)c1OC" .
active

I would be grateful if you could indicate the recorded call for COc1cc2c(cc1OCCCN1CCN(c3ncnc4ccccc34)CC1)N=CC1CCCN1C2=O (stereo not given) .
active

I would be grateful if you could indicate the recorded call for "COc1cc(-c2nc(-c3nnc(-c4ccccc4Cl)o3)c3ccccn23)cc(OC)c1OC" .
inactive

I would be grateful if you could indicate the recorded call for "COc1cc2cc3c(nc2cc1OC)CCN3Cc1ccc(NC(=O)c2ccc(Cl)c(C(F)(F)F)c2)cc1" .
inactive

I would be grateful if you could indicate the recorded call for "O=C(Nc1nc2ccccc2s1)Nc1ccc([N+](=O)[O-])cc1Cl" .
active
